Tested system: T1, human TL1A extracellular domain with N-terminal HIS and FLAG tag (human, UniProt O95150 72-251)
T1 construct: the whole entry is named
T1 sequence: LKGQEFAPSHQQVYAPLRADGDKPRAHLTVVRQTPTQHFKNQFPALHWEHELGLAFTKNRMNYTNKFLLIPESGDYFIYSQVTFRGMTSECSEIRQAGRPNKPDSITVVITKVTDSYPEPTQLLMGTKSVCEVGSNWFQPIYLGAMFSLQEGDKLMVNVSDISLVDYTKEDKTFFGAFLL
Method summary: SPR Run 6, purified Ab captured on Protein A, TL1A 5 ug/mL, timepoint 170
Record TRUE whenever TL1A Binding Level (Late) is at 100 RU or higher; record FALSE when lower.

Known results for binders:
- Binder: "320-473 (antibody, human IgG1, name in Kabat numbering, V domains shown, human IgG1, lambda) VH: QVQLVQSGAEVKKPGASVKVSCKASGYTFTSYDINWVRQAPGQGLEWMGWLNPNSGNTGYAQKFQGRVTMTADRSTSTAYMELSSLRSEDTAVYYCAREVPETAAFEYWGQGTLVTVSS VL: QSVLTQPPSVSGAPGQRVTISCTSSSSDIGAGLGVHWYQQLPGTAPKLLIEGYYNRPSGVPDRFSGSKSGTSASLTITGLLPEDEGDYYCQSDDGTLSALFGGGTKLTVLG"
  Assigned class: "FALSE"
- Binder: "320-444 (antibody, human IgG1, name in Kabat numbering, V domains shown, human IgG1, lambda) VH: QVQLVQSGAEVKKPGASVKVSCKASGYTFTSLDINWVRQAPGQGLEWMGWLNPNSGNTGYAQKFQGRVTMTADRSTSTAYMELSSLRSEDTAVYYCAREVPETAAFEYWGQGTLVTVSS VL: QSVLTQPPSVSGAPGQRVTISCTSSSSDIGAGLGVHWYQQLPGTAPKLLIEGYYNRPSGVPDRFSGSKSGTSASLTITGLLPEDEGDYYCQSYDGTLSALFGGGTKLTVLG"
  Assigned class: "FALSE"
- Binder: "320-464 (antibody, human IgG1, name in Kabat numbering, V domains shown, human IgG1, lambda) VH: QVQLVQSGAEVKKPGASVKVSCKASGYTFTSYDISWVRQAPGQGLEWMGWLNPNSGNTGYAQKFQGRVTMTADRSTSTAYMELSSLRSEDTAVYYCAREVPETAAFEYWGQGTLVTVSS VL: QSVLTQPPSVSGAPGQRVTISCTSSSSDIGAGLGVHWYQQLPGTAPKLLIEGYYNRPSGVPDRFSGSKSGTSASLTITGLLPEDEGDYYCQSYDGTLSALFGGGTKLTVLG"
  Assigned class: "TRUE"
- Binder: "320-480 (antibody, human IgG1, name in Kabat numbering, V domains shown, human IgG1, lambda) VH: QVQLVQSGAEVKKPGASVKVSCKASGYTFTSYDINWVRQAPGQGLEWMGWLNPNSGNTGYYQKFQGRVTMTADRSTSTAYMELSSLRSEDTAVYYCAREVPETAAFEYWGQGTLVTVSS VL: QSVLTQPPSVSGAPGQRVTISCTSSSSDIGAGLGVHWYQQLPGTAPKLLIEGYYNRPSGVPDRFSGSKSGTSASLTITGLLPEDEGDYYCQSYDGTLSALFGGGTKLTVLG"
  Assigned class: "FALSE"

Now take the following binder into account.
q: Given 320-434 (antibody, human IgG1, name in Kabat numbering, V domains shown, human IgG1, lambda) VH: QVQLVQSGAEVKKPGASVKVSCKASGYTFTKYDINWVRQAPGQGLEWMGWLNPNSGNTGYAQKFQGRVTMTADRSTSTAYMELSSLRSEDTAVYYCAREVPETAAFEYWGQGTLVTVSS VL: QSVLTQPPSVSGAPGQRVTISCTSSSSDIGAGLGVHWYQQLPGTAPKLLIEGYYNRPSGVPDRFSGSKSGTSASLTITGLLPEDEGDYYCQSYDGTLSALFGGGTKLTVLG , state whether its TL1A Binding Level (Late) is at least 100 RU.
a: TRUE
